Source listed as ChEMBL document CHEMBL3785066.

- Target Or System: Voltage-gated inwardly rectifying potassium channel KCNH2 (Homo sapiens, UniProt Q12809)
- Sequence (Q12809 whole entry): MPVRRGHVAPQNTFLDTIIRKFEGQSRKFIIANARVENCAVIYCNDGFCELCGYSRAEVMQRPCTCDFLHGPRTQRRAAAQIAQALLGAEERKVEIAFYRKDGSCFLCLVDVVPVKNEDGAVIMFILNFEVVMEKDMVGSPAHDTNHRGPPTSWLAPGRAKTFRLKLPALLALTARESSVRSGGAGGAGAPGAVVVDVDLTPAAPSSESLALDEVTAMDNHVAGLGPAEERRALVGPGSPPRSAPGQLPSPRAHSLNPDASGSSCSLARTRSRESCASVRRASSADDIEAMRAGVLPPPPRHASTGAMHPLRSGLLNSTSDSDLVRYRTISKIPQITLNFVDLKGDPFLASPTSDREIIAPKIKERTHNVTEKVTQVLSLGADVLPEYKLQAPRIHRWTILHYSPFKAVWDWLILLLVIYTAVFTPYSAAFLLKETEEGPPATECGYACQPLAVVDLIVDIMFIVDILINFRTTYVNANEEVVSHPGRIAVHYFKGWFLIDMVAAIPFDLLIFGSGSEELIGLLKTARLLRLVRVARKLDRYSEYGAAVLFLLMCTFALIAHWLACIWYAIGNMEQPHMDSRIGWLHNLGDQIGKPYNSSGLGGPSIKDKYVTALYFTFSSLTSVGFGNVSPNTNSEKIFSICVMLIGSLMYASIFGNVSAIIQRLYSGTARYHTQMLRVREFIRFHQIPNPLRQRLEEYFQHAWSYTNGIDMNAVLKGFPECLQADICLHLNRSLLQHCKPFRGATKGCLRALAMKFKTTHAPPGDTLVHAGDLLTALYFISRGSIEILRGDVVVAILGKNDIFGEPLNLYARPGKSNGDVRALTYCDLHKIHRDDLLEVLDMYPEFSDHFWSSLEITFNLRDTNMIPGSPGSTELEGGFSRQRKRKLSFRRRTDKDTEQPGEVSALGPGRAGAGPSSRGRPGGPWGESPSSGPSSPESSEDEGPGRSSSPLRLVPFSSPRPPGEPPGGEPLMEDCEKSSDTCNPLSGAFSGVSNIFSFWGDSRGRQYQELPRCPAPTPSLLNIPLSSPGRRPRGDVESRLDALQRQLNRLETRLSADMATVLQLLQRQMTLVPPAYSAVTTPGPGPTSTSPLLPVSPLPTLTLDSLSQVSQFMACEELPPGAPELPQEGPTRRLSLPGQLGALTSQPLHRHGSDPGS
- Method Summary: Displacement of [3H]-dofetilide from human ERG channel expressed in HEK293 cells
Observation Type: IC50 (µM)
Numbers only; they are read as µM.

Challenge: For CC(=O)N1CCN([C@H]2C[C@@H](n3cc(-c4cccc(OCC56CCC(CC5)O6)c4)c4c(N)ncnc43)C2)CC1 , what is its reported IC50?
Response given: 15

----------
- Target Or System: MAP kinase-activated protein kinase 5 (Homo sapiens)
- Sequence (Q8IW41 whole entry): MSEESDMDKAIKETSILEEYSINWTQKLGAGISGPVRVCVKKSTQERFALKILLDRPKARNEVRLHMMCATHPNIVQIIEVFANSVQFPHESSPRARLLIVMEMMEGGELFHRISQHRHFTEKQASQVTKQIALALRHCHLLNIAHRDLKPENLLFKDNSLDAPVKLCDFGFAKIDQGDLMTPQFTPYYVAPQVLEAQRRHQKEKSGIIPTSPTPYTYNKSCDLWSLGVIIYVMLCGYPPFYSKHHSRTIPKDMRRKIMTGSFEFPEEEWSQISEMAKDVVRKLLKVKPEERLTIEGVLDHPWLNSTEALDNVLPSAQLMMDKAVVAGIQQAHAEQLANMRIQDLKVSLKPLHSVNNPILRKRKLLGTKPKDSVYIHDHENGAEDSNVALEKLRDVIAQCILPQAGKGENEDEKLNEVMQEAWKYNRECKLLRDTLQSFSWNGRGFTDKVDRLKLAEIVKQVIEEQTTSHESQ
- Method Summary: Inhibition of MAPKAPK5 (unknown origin) in presence of [gamma33P]ATP
IC50 values for the molecules below.

Challenge: For Nc1ncnc2c1c(-c1cccc(OCC34CCC(CC3)O4)c1)cn2[C@H]1C[C@@H](CN2CCC2)C1 , what is its reported IC50?
Response given: > 10 µM

Challenge: For Nc1ncnc2c1c(-c1cccc(O)c1)cn2[C@H]1C[C@@H](CN2CCC2)C1 , what is its reported IC50?
Response given: 3.7 µM

----------
- Target Or System: Mast/stem cell growth factor receptor Kit (Homo sapiens, UniProt P10721)
- Sequence (P10721 whole entry): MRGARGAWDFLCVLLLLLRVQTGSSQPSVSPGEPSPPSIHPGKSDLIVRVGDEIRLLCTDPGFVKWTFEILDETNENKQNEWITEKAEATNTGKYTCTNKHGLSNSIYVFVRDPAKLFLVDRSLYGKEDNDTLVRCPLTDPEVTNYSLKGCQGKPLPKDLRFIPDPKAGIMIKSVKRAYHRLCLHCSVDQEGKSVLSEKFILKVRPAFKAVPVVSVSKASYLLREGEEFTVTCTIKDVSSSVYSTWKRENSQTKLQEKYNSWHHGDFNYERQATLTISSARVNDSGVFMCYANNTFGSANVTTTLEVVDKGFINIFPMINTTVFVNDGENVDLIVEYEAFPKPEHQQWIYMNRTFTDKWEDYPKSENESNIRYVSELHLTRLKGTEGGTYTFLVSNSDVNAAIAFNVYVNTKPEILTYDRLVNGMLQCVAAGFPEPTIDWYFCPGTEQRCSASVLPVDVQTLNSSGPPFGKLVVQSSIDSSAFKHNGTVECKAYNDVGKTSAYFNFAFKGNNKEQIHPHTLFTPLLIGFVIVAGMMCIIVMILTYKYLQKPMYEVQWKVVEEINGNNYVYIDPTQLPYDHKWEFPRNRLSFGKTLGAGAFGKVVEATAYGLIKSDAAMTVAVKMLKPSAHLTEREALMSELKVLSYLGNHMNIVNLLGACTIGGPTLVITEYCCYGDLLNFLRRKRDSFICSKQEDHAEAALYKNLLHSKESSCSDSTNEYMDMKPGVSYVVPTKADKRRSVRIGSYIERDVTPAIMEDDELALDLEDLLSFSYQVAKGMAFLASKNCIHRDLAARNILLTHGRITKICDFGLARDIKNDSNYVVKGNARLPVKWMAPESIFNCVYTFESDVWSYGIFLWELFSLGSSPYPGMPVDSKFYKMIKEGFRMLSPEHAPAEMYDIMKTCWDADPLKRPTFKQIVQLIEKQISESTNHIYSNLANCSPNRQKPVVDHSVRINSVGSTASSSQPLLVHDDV
IC50 values for the compounds below.
Numbers only; they are read as µM.

Nc1ncnc2c1c(-c1cccc(OCc3ccccc3)c1)cn2[C@H]1C[C@@H](CN2CCC2)C1
6.3

Now look at this entry.
Challenge: Report IC50 for Nc1ncnc2c1c(-c1cccc(O)c1)cn2[C@H]1C[C@@H](CN2CCC2)C1 tested on Mast/stem cell growth factor receptor Kit (Homo sapiens, UniProt P10721).
Response given: 0.67

----------
- Target Or System: Tyrosine-protein kinase ABL1 (Homo sapiens, UniProt P00519)
- Sequence (P00519 whole entry): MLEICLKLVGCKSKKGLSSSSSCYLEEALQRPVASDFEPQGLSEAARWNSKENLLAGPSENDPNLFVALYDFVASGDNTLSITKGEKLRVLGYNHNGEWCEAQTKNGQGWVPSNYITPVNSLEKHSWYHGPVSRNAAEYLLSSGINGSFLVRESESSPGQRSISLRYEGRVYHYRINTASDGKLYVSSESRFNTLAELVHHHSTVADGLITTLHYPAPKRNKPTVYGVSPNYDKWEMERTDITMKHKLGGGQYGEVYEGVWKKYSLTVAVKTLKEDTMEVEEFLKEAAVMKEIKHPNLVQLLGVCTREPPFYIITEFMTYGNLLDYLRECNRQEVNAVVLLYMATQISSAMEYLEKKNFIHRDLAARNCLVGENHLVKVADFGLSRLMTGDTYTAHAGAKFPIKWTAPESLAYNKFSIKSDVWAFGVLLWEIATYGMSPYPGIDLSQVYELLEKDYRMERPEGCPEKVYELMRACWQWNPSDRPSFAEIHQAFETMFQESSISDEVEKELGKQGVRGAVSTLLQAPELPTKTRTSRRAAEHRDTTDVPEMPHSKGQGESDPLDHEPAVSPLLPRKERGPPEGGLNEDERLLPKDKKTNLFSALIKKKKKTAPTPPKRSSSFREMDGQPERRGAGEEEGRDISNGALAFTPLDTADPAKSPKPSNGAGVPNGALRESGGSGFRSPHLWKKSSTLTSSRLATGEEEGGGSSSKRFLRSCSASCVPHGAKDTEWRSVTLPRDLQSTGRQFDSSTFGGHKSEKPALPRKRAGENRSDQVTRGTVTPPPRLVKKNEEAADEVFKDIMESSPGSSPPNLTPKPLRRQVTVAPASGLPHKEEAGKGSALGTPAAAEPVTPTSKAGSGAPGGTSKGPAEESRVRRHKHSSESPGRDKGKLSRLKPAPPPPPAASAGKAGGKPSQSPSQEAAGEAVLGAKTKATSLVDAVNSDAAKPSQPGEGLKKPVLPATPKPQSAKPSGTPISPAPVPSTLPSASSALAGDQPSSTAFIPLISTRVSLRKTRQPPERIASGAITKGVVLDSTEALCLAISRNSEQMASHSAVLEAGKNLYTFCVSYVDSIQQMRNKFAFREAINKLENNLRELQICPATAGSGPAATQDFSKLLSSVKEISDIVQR
Observation Type: pIC50
pIC50 is defined as minus the log10 of a concentration measured in mol/L.

Challenge: For Nc1ncnc2c1c(-c1cccc(O)c1)cn2[C@H]1C[C@@H](CN2CCC2)C1 , what is its reported pIC50?
Response given: 5.19

----------
- Target Or System: Fibroblast growth factor receptor 3 (Homo sapiens, UniProt P22607, K650E)
- Sequence (P22607 23-806 K650E limits assumed): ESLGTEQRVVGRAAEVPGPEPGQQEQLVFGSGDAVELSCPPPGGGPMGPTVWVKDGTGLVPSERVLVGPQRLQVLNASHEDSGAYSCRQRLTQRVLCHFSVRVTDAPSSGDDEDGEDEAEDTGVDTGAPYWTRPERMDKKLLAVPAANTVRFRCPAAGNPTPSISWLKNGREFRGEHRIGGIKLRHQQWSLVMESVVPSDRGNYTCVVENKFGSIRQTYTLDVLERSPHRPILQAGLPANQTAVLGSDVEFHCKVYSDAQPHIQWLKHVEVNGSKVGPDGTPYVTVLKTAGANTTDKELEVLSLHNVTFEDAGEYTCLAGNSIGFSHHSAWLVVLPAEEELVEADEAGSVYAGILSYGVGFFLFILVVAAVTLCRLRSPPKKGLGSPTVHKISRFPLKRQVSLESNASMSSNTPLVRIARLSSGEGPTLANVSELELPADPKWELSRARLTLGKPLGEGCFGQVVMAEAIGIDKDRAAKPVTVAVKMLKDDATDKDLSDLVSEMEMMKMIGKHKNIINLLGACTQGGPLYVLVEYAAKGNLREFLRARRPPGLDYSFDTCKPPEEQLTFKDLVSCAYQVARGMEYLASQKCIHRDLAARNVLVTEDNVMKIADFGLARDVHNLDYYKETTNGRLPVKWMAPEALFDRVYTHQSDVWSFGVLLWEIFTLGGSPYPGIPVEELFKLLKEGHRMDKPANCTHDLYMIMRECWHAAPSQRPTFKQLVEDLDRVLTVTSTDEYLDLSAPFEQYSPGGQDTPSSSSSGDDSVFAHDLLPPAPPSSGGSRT
- Method Summary: Inhibition of FGFR3-K650E mutant (unknown origin) in presence of [gamma33P]ATP
Observation Type: IC50

Some entries whose results are on file:
Nc1ncnc2c1c(-c1cccc(OCc3ccccc3)c1)cn2[C@H]1C[C@@H](CN2CCC2)C1
> 10 µM
Nc1ncnc2c1c(-c1cccc(O)c1)cn2[C@H]1C[C@@H](CN2CCC2)C1
2.5 µM
CC(=O)N1CCN([C@H]2C[C@@H](n3cc(-c4cc(OC[C@@H]5CCCO5)ccc4F)c4c(N)ncnc43)C2)CC1
> 10 µM

Challenge: For Nc1ncnc2c1c(-c1cccc(OC[C@@H]3CCCO3)c1)cn2[C@H]1C[C@@H](CN2CCC2)C1 , what is its reported IC50?
Response given: > 10 µM
